Biological target: T1, His-Avidin-FKBP (wild-type FKBP) (biotinylated (position not given))
T1 construct: His tag and biotin acceptor tag are part of the entry; also called biotinylated wild-type FKBP; biotinylated FKBP
T1 sequence (chain, as listed by the source limits assumed): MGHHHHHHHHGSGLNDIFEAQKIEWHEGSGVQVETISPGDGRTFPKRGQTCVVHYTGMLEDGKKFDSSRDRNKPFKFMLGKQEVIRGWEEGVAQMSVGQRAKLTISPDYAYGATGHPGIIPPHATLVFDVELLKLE
Assay: AlphaLISA direct format: 30 nM biotinylated FKBP + 30 nM FLAG-FRB, everolimus titrated 1:3 from 600 nM (EC50 is of the everolimus titration)
The following binders are listed with their measured EC50 values.
recorded_metric: EC50

# binder, recorded_metric, measured_result
rows = [
    ("His-FLAG-FRB E2032I (other, The entry already carries the mutation and the tags; also called E2032I (FLAG tagged)) MGHHHHHHHHGSDYKDDDDKGSASRILWHEMWHEGLIEASRLYFGERNVKGMFEVLEPLHAMMERGPQTLKETSFNQAYGRDLMEAQEWCRKYMKSGNVKDLTQAWDLYYHVFRRISKTS", "EC50", "2.46 nM"),
    ("His-FLAG-FRB E2032L (other, The entry already carries the mutation and the tags; also called E2032L (FLAG tagged)) MGHHHHHHHHGSDYKDDDDKGSASRILWHEMWHEGLLEASRLYFGERNVKGMFEVLEPLHAMMERGPQTLKETSFNQAYGRDLMEAQEWCRKYMKSGNVKDLTQAWDLYYHVFRRISKTS", "EC50", "2.15 nM"),
    ("His-FLAG-FRB T2098L (other, The entry already carries the mutation and the tags; also called T2098L (FLAG tagged)) MGHHHHHHHHGSDYKDDDDKGSASRILWHEMWHEGLEEASRLYFGERNVKGMFEVLEPLHAMMERGPQTLKETSFNQAYGRDLMEAQEWCRKYMKSGNVKDLLQAWDLYYHVFRRISKTS", "EC50", "1.44 nM"),
    ("His-FLAG-FRB (wild-type FRB) (other, His and FLAG tags are part of the entry; also called wild type Flag-FRB) MGHHHHHHHHGSDYKDDDDKGSASRILWHEMWHEGLEEASRLYFGERNVKGMFEVLEPLHAMMERGPQTLKETSFNQAYGRDLMEAQEWCRKYMKSGNVKDLTQAWDLYYHVFRRISKTS", "EC50", "3.9 nM"),
]
